Data credit: patent US4279887A

- Experimental protocol: Bioassay of I-123-labeled compounds: organ distribution of activity 5 minutes after tail vein injection
- Assay type: in vivo, Female Sprague-Dawley rats
- Condition parameters: rat, in vivo, iv, Percent Dose/g. at 5 min., Heart
Consider the following compounds and their measured tissue uptake at 5 min readings.
The reply should contain only the number, in %ID/g.

Answered cases to consult:
Compound	Result value
CCCCCCNC(=O)c1ccccc1[123I] [Example 3, N-hexyl-o-iodobenzamide]	1.04
O=C(NO)c1ccccc1[123I] [Example 14, o-iodobenzohydramic acid]	0.94
CCCCCCCCCCCCCCCCCCNC(=O)c1ccccc1[123I] [Example 5, N-octadecyl-o-iodobenzamide]	0.84
NC(=O)CNC(=O)c1ccccc1[123I] [Example 12, o-iodohippuramide]	0.96

Alright, here's another compound for you.
Hello, please tell me recorded tissue uptake at 5 min for this one: CNC(=O)c1ccccc1[123I] [Example 1, N-methyl-o-iodobenzamide]
1.1
